tested on: ryegrass, Italian (Italian ryegrass, Lolium multiflorum); experiment: Test A postemergence, ryegrass, Italian; format: in vivo; settings: Lolium multiflorum, post-emergence, 240 h, 125 g ai/ha, 0 to 100 scale (0 no effect, 100 complete control), read-out: Plant response rating, Ryegrass, Italian

Molecule | Target desc | pest or weed control at 125 g/ha (%)
O=C1c2cccc(Oc3ncc(Cl)cn3)c2C1CCCC(F)(F)F (stereo not drawn) [Compound 22] | ryegrass, Italian (Italian ryegrass, Lolium multiflorum) | 20
FC(F)(F)CCCC1CCc2cccc(Oc3ncc(Cl)cn3)c21 (stereo not drawn) [Compound 9] | ryegrass, Italian (Italian ryegrass, Lolium multiflorum) | 30
O=C1Cc2cccc(Oc3ncc(Cl)cn3)c2C(CCCC(F)(F)F)O1 (stereo not drawn) [Compound 17] | ryegrass, Italian (Italian ryegrass, Lolium multiflorum) | 10
OC1(CCC(F)(F)F)CCc2cccc(Oc3ncc(Cl)cn3)c21 (stereo not drawn) [Compound 14] | ryegrass, Italian (Italian ryegrass, Lolium multiflorum) | 20
FC(F)(F)CCCC1COc2cccc(Oc3ncc(Cl)cn3)c21 (stereo not drawn) [Compound 33] | ryegrass, Italian (Italian ryegrass, Lolium multiflorum) | 0
O=C1NC(CCCC(F)(F)F)c2c(Oc3ncc(Cl)cn3)cccc21 (stereo not drawn) [Compound 13] | ryegrass, Italian (Italian ryegrass, Lolium multiflorum) | 0
O=C1OCC(CCC(F)(F)F)c2c(Oc3ncc(Cl)cn3)cccc21 (stereo not drawn) [Compound 25] | ryegrass, Italian (Italian ryegrass, Lolium multiflorum) | 0
FC(F)(F)CCCC1OCCc2cccc(Oc3ncc(Cl)cn3)c21 (stereo not drawn) [Compound 27] | ryegrass, Italian (Italian ryegrass, Lolium multiflorum) | 40
CN1C(=O)c2cccc(Oc3ncc(Cl)cn3)c2C1CCCC(F)(F)F (stereo not drawn) [Compound 12] | ryegrass, Italian (Italian ryegrass, Lolium multiflorum) | 0
O=C1CCC(CCCC(F)(F)F)c2c(Oc3ncc(Cl)cn3)cccc21 (stereo not drawn) [Compound 30] | ryegrass, Italian (Italian ryegrass, Lolium multiflorum) | 30
O=C1OC(CCC(F)(F)F)Cc2c(Oc3ncc(Cl)cn3)cccc21 (stereo not drawn) [Compound 23] | ryegrass, Italian (Italian ryegrass, Lolium multiflorum) | 0
O=C1O[C@@H](CCC(F)(F)F)c2c(Oc3ncc(Cl)cn3)cccc21 [Compound 18] | ryegrass, Italian (Italian ryegrass, Lolium multiflorum) | 0
O=C1OC(CCC(F)(F)F)c2c(Oc3ncc(Cl)cn3)cccc21 (stereo not drawn) [Compound 4] | ryegrass, Italian (Italian ryegrass, Lolium multiflorum) | 90
O=C1O[C@@H](CCCC(F)(F)F)c2c(Oc3ncc(Cl)cn3)cccc21 [Compound 2] | ryegrass, Italian (Italian ryegrass, Lolium multiflorum) | 10
O=C1c2cccc(Oc3ncc(Cl)cn3)c2C1CCC(F)(F)F (stereo not drawn) [Compound 24] | ryegrass, Italian (Italian ryegrass, Lolium multiflorum) | 20
CCCC1OC(=O)Cc2cccc(Oc3ncc(Cl)cn3)c21 (stereo not drawn) [Compound 35] | ryegrass, Italian (Italian ryegrass, Lolium multiflorum) | 0
FC(F)(F)CCCC1OCc2cccc(Oc3ncc(Cl)cn3)c21 (stereo not drawn) [Compound 7] | ryegrass, Italian (Italian ryegrass, Lolium multiflorum) | 60
O=C1O[C@H](CCC(F)(F)F)c2c(Oc3ncc(Cl)cn3)cccc21 [Compound 19] | ryegrass, Italian (Italian ryegrass, Lolium multiflorum) | 100
O=C1OCc2cccc(Oc3ncc(Cl)cn3)c2C1CCCC(F)(F)F (stereo not drawn) [Compound 26] | ryegrass, Italian (Italian ryegrass, Lolium multiflorum) | 0
O=C1OCc2cccc(Oc3ncc(Cl)cn3)c2C1CCC(F)(F)F (stereo not drawn) [Compound 29] | ryegrass, Italian (Italian ryegrass, Lolium multiflorum) | 30
O=C1OC(CCCCC(F)(F)F)Cc2c(Oc3ncc(Cl)cn3)cccc21 (stereo not drawn) [Compound 31] | ryegrass, Italian (Italian ryegrass, Lolium multiflorum) | 0
O=C1Cc2cccc(Oc3ncc(Cl)cn3)c2C(CCC(F)(F)F)O1 (stereo not drawn) [Compound 28] | ryegrass, Italian (Italian ryegrass, Lolium multiflorum) | 0
O=C1OC(CCCC(F)(F)F)c2c(Oc3ncc(Cl)cn3)cccc21 (stereo not drawn) [Compound 1] | ryegrass, Italian (Italian ryegrass, Lolium multiflorum) | 50
FC(F)(F)CCC1OCc2cccc(Oc3ncc(Cl)cn3)c21 (stereo not drawn) [Compound 8] | ryegrass, Italian (Italian ryegrass, Lolium multiflorum) | 50
